Some molecules, each annotated with its measured TGI.
System: SN12C renal
Protocol text: NCI tumour cell line growth inhibition, 48 h

Before answering, review these 2 worked examples.
>>> data_value("OCC#CCOCC#Cc1ccccc1C#CCOCC#CCO")
"80.9 µM"
>>> data_value("CCc1cccc(C(C)C)c1NC(=O)CC1Sc2ccccc2NC1=O (centres undefined)")
"> 100 µM"

INPUT: TGI lookup needed for O=C(O)C1C2C=CC(O2)C1C(=O)NCc1cccnc1 (centres undefined) , thanks.
OUTPUT: > 100 µM

====

Tested on: A549 NSCLC
Protocol text: NCI tumour cell line growth inhibition, 48 h
Metric name: TGI

Use the examples below as a reference point.
>>> data_value("CCCCCCCCCCC(=O)CCCCCCC(=O)O")
"32.2 µM"
>>> data_value("COc1cc(C2CC(C)(N3CCOCC3)Oc3cc4c(cc32)OCO4)cc(OC)c1OC (stereo not given)")
"> 100 µM"
>>> data_value("COC(=O)c1cc(-c2ccc3ccccc3c2)[nH]c(=O)c1C#N")
"> 100 µM"

# context switch: different molecule, same TGI
INPUT: GET /values?readout=TGI&item= CCCCC(C(=O)C(=O)Nc1ccc(C)cc1C)C(=O)C(C)C (stereo not given)
OUTPUT: > 100 µM

====

System: MCF7 breast
Protocol text: NCI tumour cell line growth inhibition, 48 h; in the data active = GI50 below about 0.43 µM; inactive = the rest
Select the correct class. Options are active, inactive and nothing else.

Example entries and their recorded answers appear below.
>>> discrete_label("CC(C)C[C@H](CC(=O)O)C(=O)N[C@@H](Cc1c[nH]c2ccccc12)C(=O)N[C@@H](C)c1ccccc1")
"inactive"
>>> discrete_label("C[C@H]1CCC/C=C/C2CC(OC(=O)CN(C)C)CC2C(OC(=O)CN(C)C)/C=C/C(=O)O1 (some centres undefined)")
"active"
>>> discrete_label("CN(C)c1ccc(/C=C/C(=O)c2ccc(Nc3nc(Nc4ccc(F)cc4)nc(Nc4ccc(F)cc4)n3)cc2)cc1")
"inactive"

Shift focus to the following entry.
INPUT: // param item: "N#C/C(=C\c1ccc(O)c(O)c1)C(=O)NCc1ccc(C(F)(F)F)cc1" ; yields the recorded call
OUTPUT: inactive

====

Tested on: NCI-H23 lung
Protocol text: NCI tumour cell line growth inhibition, 48 h
Metric name: TGI (µM)
Provide only the numeric value, understood in µM.

INPUT: Param readout= TGI; system= NCI-H23 lung; entry= "CN1CCN(CCCOc2cccc3nc(Nc4cc(Cl)cc(Cl)c4)ccc23)CC1" ; returns value.
OUTPUT: 3.32

INPUT: And for OC1(c2ccccc2)CC2CCC(C1)N2CCCC(O)(c1ccccc1)c1ccccc1 (stereo not given) ?
OUTPUT: 25.7

INPUT: What about "CC1=C(C(=O)Nc2cccc(Cl)c2)C(c2ccccc2O)C(C(=O)Nc2cccc(Cl)c2)=C(C)N1" ?
OUTPUT: 33.1

====

Tested on: SF-539 CNS
Protocol text: NCI tumour cell line growth inhibition, 48 h
Metric name: TGI

Record excerpt, results attached:
>>> data_value("COc1ccc2c(c1)CC[C@@H]1[C@@H]2CC[C@]2(C)/C(=N/OCCN3CCCC3)CC[C@@H]12")
"3.92 µM"
>>> data_value("CC(=O)N[C@H](C)[C@@H](O)[C@@H](C)[C@@H]1OC(=O)/C=C/C=C(C)\\C=C\\[C@]2(C)C[C@@H](NS(C)(=O)=O)C=C[C@@H]2/C=C(C)/C=C/[C@H]1C")
"> 43.5 µM"
>>> data_value("N#Cc1ncc(C(Cl)Cl)nc1Cl")
"3.44 µM"
>>> data_value("CC(Oc1cc2oc(=O)cc(-c3ccccc3)c2cc1Cl)C(=O)O (stereo not given)")
"> 100 µM"
>>> data_value("O=c1oc2cc(O)ccc2c2[nH]c3cc(O)ccc3c12")
"49.9 µM"

INPUT: What reported TGI corresponds to CCc1cccc(C(C)C)c1NC(=O)CC1Sc2ccccc2NC1=O (stereo not given) on SF-539 CNS?
OUTPUT: > 100 µM

INPUT: What do you get for CC(C)C[S+]1C2=C([O-])CC(C)(C)CC2=Nc2ccccc21 (stereo not given) ?
OUTPUT: > 100 µM

INPUT: Next molecule up: "O=C1c2ccccc2N=C(c2cc3c(cc2Cl)Sc2nccn2S3(=O)=O)OS(=O)(=O)N1c1ccccc1"
OUTPUT: > 100 µM

INPUT: Next molecule: "c1ccc2c(c1)[nH]c1cnc3c4ncccc4[nH]c3c12"
OUTPUT: > 100 µM

INPUT: What do you get for Cc1ccc(C2(O)c3ccccc3C(=O)N(C)C2(O)c2ccc(C)cc2)cc1 (stereo not given) ?
OUTPUT: > 100 µM
